assay: Cytotoxicity against human HepG2 cells after 24 hrs by MTT assay; format: cell-based
Non-standard residues stand in square brackets, D forms with d. Residues, ends and D or L forms follow the SMILES beside them. Groups on a side chain read outwards from the residue. ξ: configuration not given here. ξGly(decyl) = CCCCCCCCCCC(N)C(=O)O
recorded-metric: CC50 at 24 h

Problem: Which CC50 at 24 h value belongs to CCCCCCCCCCC(NC(=O)C(CCCCCCCCCC)NC(=O)C(CCCCNC(=O)C(N)CCCCN)NC(=O)C(N)CCCCN)C(N)=O (centres undefined) (H-KK(Lys)[ξGly(decyl)][ξGly(decyl)]-NH2; configuration not given here) ?
Solution: ≥ 15 µM

Problem: Another: CCCCCCCCCCC(NC(=O)C(CCCCCCCCCC)NC(=O)C(CCCCNC(=O)C(CCCCN)NC(C)=O)NC(=O)C(CCCCN)NC(C)=O)C(N)=O (centres undefined) (Ac-KK([Lys-Ac])[ξGly(decyl)][ξGly(decyl)]-NH2; configuration not given here)
Solution: > 15 µM

Problem: Another: CCCCCCCCCCC(NC(=O)C(CCCCN)NC(C)=O)C(N)=O (centres undefined)
Solution: > 15 µM

Problem: Another: CCCCCCCCCCC(NC(=O)C(CCCCNC(=O)C(CCCCN)NC(C)=O)NC(=O)C(CCCCN)NC(C)=O)C(N)=O (centres undefined)
Solution: > 15 µM

* * *

test system: Staphylococcus aureus; experiment: Antimicrobial activity against vancomycin-resistant Staphylococcus aureus NARSA VRS1 after 20 hrs by microdilution assay; format: functional; conditions: NARSA VRS1, 20 h
Exercise: for every item that follows, state its recorded MIC.

Problem: For Staphylococcus aureus, provide MIC of CCCCCCCCCCC(NC(=O)C(CCCCNC(=O)C(CCCCN)NC(C)=O)NC(=O)C(CCCCN)NC(C)=O)C(N)=O (stereo not drawn) please.
Solution: > 30 µM

Problem: Another: CCCCCCCCCCC(NC(=O)C(CCCCN)NC(C)=O)C(N)=O (stereo not drawn)
Solution: > 30 µM

Problem: Another: CN[C@@H](CC(C)C)C(=O)N[C@H]1C(=O)N[C@@H](CC(N)=O)C(=O)N[C@H]2C(=O)N[C@H]3C(=O)N[C@H](C(=O)N[C@@H](C(=O)O)c4cc(O)cc(O)c4-c4cc3ccc4O)[C@H](O)c3ccc(c(Cl)c3)Oc3cc2cc(c3O[C@H]2O[C@@H](CO)[C@H](O)[C@@H](O)[C@@H]2O[C@@H]2C[C@@](C)(N)[C@@H](O)[C@@H](C)O2)Oc2ccc(cc2Cl)[C@H]1O
Solution: > 44 µM

Provenance of the data: ChEMBL document CHEMBL3779783
